- Experimental target: 5'-AMP-activated protein kinase catalytic subunit alpha-2 (Homo sapiens) (UniProt P54646)
- Sequence (P54646 whole entry, looked up): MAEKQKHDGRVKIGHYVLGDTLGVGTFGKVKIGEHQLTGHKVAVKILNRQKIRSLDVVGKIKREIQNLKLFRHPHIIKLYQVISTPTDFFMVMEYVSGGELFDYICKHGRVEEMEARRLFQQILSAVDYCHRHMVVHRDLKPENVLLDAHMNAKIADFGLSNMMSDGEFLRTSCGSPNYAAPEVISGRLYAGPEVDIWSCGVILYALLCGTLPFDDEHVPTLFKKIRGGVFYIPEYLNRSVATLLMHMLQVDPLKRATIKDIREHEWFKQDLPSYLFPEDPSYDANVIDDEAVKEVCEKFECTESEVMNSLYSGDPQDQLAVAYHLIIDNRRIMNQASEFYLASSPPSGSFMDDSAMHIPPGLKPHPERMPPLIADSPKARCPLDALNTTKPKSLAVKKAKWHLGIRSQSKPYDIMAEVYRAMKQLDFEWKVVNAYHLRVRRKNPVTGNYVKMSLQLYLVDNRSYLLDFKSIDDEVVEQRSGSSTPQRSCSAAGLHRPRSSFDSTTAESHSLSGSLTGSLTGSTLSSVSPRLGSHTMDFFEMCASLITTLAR
Experimental endpoint: ΔTm

INSERT INTO results (compound, assay_result) VALUES
  ('O=S(=O)(NCCNC/C=C/c1ccc(Br)cc1)c1cccc2cnccc12', '0.9 °C'),
  ('CCOC(=O)c1c(C)[nH]c(/C=C2\C(=O)Nc3ccccc32)c1C', '0.5 °C'),
  ('COc1ccc(CNC(=O)Nc2ncc([N+](=O)[O-])s2)cc1', '-0.1 °C'),
  ('COc1cc(OC)c(/C=C2\C(=O)Nc3ccccc32)c(OC)c1', '-0.1 °C'),
  ('NC1=N/C(=C2/CCNC(=O)c3[nH]ccc32)C(=O)N1 [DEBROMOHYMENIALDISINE]', '-0.5 °C'),
  ('COc1ccc2c(c1)/C(=C/c1cnc[nH]1)C(=O)N2 [SU-9516]', '4.1 °C'),
  ('CC[C@H](CO)Nc1nc(NCc2ccccc2)c2ncn(C(C)C)c2n1 [SELICICLIB]', '0.4 °C'),
  ('Nc1nccc(-c2c(-c3ccc(F)cc3)ncn2C2CCNCC2)n1', '0.4 °C'),
  ('CCN(CC)CCNC(=O)c1c(C)[nH]c(/C=C2\C(=O)Nc3ccc(Cl)cc32)c1C [SU-11652]', '7 °C'),
  ('O=C(Nc1cccc(Nc2cc(Nc3cccc(C(F)(F)F)c3)ncn2)c1)C1CC1', '-3.7 °C');

###

- Experimental target: Serine/threonine-protein kinase RIO2 (Homo sapiens) (UniProt Q9BVS4)
- Sequence (Q9BVS4 whole entry, looked up): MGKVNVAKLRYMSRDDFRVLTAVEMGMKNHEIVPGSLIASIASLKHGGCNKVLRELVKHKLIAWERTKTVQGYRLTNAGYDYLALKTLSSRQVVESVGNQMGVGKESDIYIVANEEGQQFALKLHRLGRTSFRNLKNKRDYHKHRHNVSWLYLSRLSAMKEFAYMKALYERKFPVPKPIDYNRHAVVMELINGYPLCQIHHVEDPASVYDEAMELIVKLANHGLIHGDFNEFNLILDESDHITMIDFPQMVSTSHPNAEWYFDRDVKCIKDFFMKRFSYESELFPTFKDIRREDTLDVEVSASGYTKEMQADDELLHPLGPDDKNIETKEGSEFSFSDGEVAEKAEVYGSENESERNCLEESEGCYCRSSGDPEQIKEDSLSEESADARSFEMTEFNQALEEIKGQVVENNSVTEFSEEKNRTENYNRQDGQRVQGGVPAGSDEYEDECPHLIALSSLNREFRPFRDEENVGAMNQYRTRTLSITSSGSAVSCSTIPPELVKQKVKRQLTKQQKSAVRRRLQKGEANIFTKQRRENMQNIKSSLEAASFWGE
Catalogue of ΔTm values
Experimental endpoint: ΔTm (°C)

INSERT INTO measurements (molecule, value_units, assay_result) VALUES
  ('c1ccc(-c2n[nH]c3c2oc2ccccc23)cc1', '°C', 2.9),
  ('Cn1cnc2c(NCc3ccccc3)nc(NCCO)nc21', '°C', 0.3),
  ('Oc1ccc(-c2nc(-c3ccc(F)cc3)c(-c3ccncc3)[nH]2)cc1', '°C', -0.3),
  ('N#C/C(=C1/Nc2ccccc2S1)c1ccnc(NCCc2cccnc2)n1', '°C', 7),
  ('CN(C)CC1CCn2c(c(C3=C(c4c[nH]c5ccccc45)C(=O)NC3=O)c3ccccc32)C1 (stereo unspecified)', '°C', 0.7),
  ('NC1=NC(=O)/C(=C2\CCNC(=O)c3[nH]c(Br)cc32)N1', '°C', 0.2),
  ('Cc1cc(Nc2nc(-c3ccccc3)nc3ccccc23)n[nH]1', '°C', 5.3),
  ('Brc1c(Br)c(Br)c2[nH]nnc2c1Br', '°C', 3.1),
  ('Cc1[nH]c(/C=C2\C(=O)Nc3ccc(S(=O)(=O)N(C)c4cccc(Cl)c4)cc32)c(C)c1C(=O)N1CCN(C)CC1', '°C', 1.4),
  ('COc1cccc(-c2cc(=O)c3ccccc3o2)c1N', '°C', 0.5),
  ('C#Cc1cccc(Nc2ncnc3cc(OCCOC)c(OCCOC)cc23)c1', '°C', 0.3),
  ('Oc1cccc(-c2nc(N3CCOCC3)c3oc4ncccc4c3n2)c1', '°C', -0.3),
  ('O=C1Nc2ccccc2/C1=C\c1ccc[nH]1', '°C', 3),
  ('Cc1nc2sccn2c(=O)c1CCN1CCC(=C(c2ccccc2)c2ccc(F)cc2)CC1', '°C', 4.5),
  ('C[S+]([O-])c1ccc(-c2nc(-c3ccc(F)cc3)c(-c3ccncc3)[nH]2)cc1 (stereo unspecified)', '°C', -0.2),
  ('CC(C)(C)c1nc2c3ccc(F)cc3c3c(=O)[nH]ccc3c2[nH]1', '°C', 0.7),
  ('CN(C)S(=O)(=O)c1ccc2c(c1)/C(=C/c1cc3c([nH]1)CCCC3)C(=O)N2', '°C', -6.4),
  ('COc1cc2ncnc(Nc3cccc(Br)c3)c2cc1OC', '°C', 1.2),
  ('Clc1ccc(Nc2nnc(Cc3ccncc3)c3ccccc23)cc1', '°C', -0.8),
  ('Cc1ccc(NC(=O)c2ccc(CN3CCN(C)CC3)cc2)cc1Nc1nccc(-c2cccnc2)n1', '°C', 1.2),
  ('CC(C)n1cnc2/c(=N/c3cccc(Cl)c3)nc(NCCO)[nH]c21', '°C', 1);

###

Notes on ΔTm obtained with Serine/threonine-protein kinase pim-2 (Homo sapiens, UniProt Q9P1W9).
Sequence (Q9P1W9 whole entry, looked up): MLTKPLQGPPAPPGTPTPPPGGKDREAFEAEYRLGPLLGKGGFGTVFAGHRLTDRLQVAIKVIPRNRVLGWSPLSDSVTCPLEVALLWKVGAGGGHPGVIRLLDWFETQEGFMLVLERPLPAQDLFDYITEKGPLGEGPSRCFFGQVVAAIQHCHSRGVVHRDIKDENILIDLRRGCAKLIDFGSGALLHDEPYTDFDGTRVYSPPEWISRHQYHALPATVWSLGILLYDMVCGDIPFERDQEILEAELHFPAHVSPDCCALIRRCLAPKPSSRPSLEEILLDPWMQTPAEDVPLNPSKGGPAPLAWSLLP
Experimental endpoint: ΔTm (°C)

INSERT INTO measurements (mol, assay_result) VALUES
  ('Nc1cc2ncnc(Nc3cccc(Br)c3)c2cc1N', 2.6),
  ('O=C(O)c1cc(N(Cc2ccccc2O)Cc2cc(O)ccc2O)ccc1O', 1.1),
  ('O=c1ccc2ccc(O)c(O)c2o1', 0.7),
  ('O=C1Nc2ccc(S(=O)(=O)O)cc2/C1=C1/Nc2ccccc2/C1=N\O', 3.5),
  ('Cc1cc2ncc(-c3ccccc3)nc2cc1C', 0.4),
  ('O=C1Nc2ccccc2/C1=C/c1cnc[nH]1', 1.9);

###

Catalogue of pIC50 values
- Experimental target: Mitogen-activated protein kinase kinase kinase 8 (Homo sapiens)
- Sequence (P41279 whole entry): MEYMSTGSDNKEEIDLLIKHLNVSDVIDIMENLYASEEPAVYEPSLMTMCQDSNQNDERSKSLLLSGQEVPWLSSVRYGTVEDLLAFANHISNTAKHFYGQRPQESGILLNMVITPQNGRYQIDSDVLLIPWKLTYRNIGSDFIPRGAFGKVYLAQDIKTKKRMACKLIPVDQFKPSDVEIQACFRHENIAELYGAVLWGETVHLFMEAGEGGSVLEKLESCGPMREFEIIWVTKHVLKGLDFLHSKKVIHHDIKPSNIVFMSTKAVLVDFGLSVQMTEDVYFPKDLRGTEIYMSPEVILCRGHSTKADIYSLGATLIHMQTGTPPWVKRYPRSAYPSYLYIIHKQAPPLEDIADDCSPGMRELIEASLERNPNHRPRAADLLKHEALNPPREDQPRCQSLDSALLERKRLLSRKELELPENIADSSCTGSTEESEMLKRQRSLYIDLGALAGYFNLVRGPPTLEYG
- Assay overview: Inhibition of Tpl2 kinase
pIC50: −log10 of the molar value.
Experimental endpoint: pIC50

INSERT INTO assay_data (mol, experimental_endpoint, assay_result) VALUES
  ('CN(c1cccnc1)c1cc2c(Nc3ccc(F)c(Cl)c3)c(C#N)cnc2cn1', 'pIC50', 7.30),
  ('O=C1C(Cl)=C(N2C(=O)CCC2=O)C(=O)c2ccccc21', 'pIC50', 7.30);

###

- Experimental target: Serine/threonine-protein kinase Chk2 (Homo sapiens)
- Sequence (O96017 whole entry): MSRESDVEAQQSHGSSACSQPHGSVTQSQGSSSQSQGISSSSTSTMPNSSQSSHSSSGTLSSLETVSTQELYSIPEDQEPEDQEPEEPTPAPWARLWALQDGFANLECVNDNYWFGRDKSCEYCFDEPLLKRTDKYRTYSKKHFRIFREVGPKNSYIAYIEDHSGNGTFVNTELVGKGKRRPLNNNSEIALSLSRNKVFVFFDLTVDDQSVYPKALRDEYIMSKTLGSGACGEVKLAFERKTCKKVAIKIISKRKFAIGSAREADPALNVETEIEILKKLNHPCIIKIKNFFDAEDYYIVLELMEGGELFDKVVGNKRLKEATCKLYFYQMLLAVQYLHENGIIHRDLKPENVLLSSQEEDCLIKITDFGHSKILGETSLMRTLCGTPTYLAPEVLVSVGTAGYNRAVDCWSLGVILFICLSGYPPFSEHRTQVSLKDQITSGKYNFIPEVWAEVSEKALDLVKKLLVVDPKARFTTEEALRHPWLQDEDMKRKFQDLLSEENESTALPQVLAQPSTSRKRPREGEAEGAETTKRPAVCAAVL
Catalogue of ΔTm values
Experimental endpoint: ΔTm

INSERT INTO measurements (compound, experimental_endpoint, assay_result) VALUES
  ('O=c1c2ccccc2[nH]c(=S)n1CCN1CCC(=C(c2ccc(F)cc2)c2ccc(F)cc2)CC1', 'ΔTm', '1.6 °C'),
  ('Nc1n[nH]c2nnc(-c3c(-c4ccccc4)nn4ccccc34)cc12', 'ΔTm', '0.9 °C'),
  ('Cc1cc(Nc2nc(-c3ccccc3)nc3ccccc23)n[nH]1', 'ΔTm', '5.7 °C'),
  ('CC(=O)O/N=C1/C(=C2/C(=O)Nc3cc(Br)ccc32)Nc2ccccc21', 'ΔTm', '0.1 °C'),
  ('CN(C)c1ccc(CC2C(=O)Nc3ccccc32)cc1 (configuration not stated)', 'ΔTm', '0.7 °C'),
  ('Cc1c2ccncc2c(C)c2c1[nH]c1ccccc12', 'ΔTm', '2 °C'),
  ('O=c1c(-c2ccc(O)cc2)coc2cc(O)cc(O)c12', 'ΔTm', '1.6 °C'),
  ('O=C1NC(=O)C(c2c[nH]c3ccccc23)=C1c1c[nH]c2ccccc12', 'ΔTm', '2.6 °C'),
  ('COc1cc(C[C@H]2C(=O)OC[C@@H]2Cc2ccc(OC)c(OC)c2)ccc1O', 'ΔTm', '-0.3 °C'),
  ('Oc1cccc(-c2nc(N3CCOCC3)c3oc4ncccc4c3n2)c1', 'ΔTm', '1.4 °C'),
  ('Cc1cc2ncc(-c3ccccc3)nc2cc1C', 'ΔTm', '-0.3 °C'),
  ('C[C@@H]1C[C@H]2O[C@@H]2/C=C\C=C\C(=O)Cc2c(Cl)c(O)cc(O)c2C(=O)O1', 'ΔTm', '1.6 °C'),
  ('N#CCCc1ccc2c(c1)-c1[nH]c3ccc([N+](=O)[O-])cc3c1CC(=O)N2', 'ΔTm', '8.2 °C'),
  ('COc1cc2ncnc(Nc3cccc(O)c3)c2cc1OC', 'ΔTm', '1.8 °C'),
  ('Nc1nccc(-c2c(-c3ccc(F)cc3)ncn2C2CCNCC2)n1', 'ΔTm', '0.1 °C'),
  ('O=C1c2ccccc2-c2n[nH]c3cccc1c23', 'ΔTm', '6 °C'),
  ('COc1cc2ncnc(Nc3ccc(NC(=O)c4ccccc4)cc3)c2cc1OC', 'ΔTm', '7.3 °C');

###

- Experimental target: Serine/threonine-protein kinase 26 (Homo sapiens)
Label rule, in plain words: ΔTm of 4 °C and up is true (1), under 4 °C is false (0).

INSERT INTO measurements (mol, category_label) VALUES
  ('Cc1nc2sccn2c(=O)c1CCN1CCC(=C(c2ccccc2)c2ccc(F)cc2)CC1', 'false (0)'),
  ('N#CCCc1ccc2c(c1)-c1[nH]c3ccc([N+](=O)[O-])cc3c1CC(=O)N2', 'false (0)'),
  ('CN(C)S(=O)(=O)c1ccc2c(c1)/C(=C/c1cc3c([nH]1)CCCC3)C(=O)N2', 'true (1)'),
  ('Cc1cc(Nc2nc(-c3ccccc3)nc3ccccc23)n[nH]1', 'false (0)'),
  ('O=c1cc(-c2ccc(O)cc2)oc2cc(O)cc(O)c12', 'false (0)');

###

Catalogue of ΔTm values
- Experimental target: Serine/threonine-protein kinase pim-1 (Homo sapiens) (UniProt P11309)
- Sequence (P11309 whole entry, looked up): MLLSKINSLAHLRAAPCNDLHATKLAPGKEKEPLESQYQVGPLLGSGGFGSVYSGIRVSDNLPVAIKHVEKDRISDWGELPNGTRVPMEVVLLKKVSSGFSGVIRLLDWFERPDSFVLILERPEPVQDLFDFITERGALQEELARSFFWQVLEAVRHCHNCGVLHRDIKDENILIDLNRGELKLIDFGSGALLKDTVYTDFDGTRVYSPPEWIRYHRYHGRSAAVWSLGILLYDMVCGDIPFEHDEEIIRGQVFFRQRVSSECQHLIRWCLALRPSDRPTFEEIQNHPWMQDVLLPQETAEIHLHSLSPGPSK
Experimental endpoint: ΔTm (°C)

INSERT INTO results (compound, assay_result) VALUES
  ('CN(C)CC1CCn2c(c(C3=C(c4c[nH]c5ccccc45)C(=O)NC3=O)c3ccccc32)C1 (stereo unspecified)', 4.9),
  ('O=c1sn(Cc2ccccc2)c(=S)n1Cc1ccccc1', -0.2),
  ('CC(C)(C)c1nc2c3ccc(F)cc3c3c(=O)[nH]ccc3c2[nH]1', 3.7),
  ('O=C1NC(=O)c2c1c1c3ccccc3[nH]c1n1cncc21 [ISOGRANULATIMIDE]', 9),
  ('Nc1nccc(-c2c(-c3ccc(F)cc3)ncn2C2CCNCC2)n1', -0.1),
  ('COc1ccc(COc2ccc(Cc3cnc(N)nc3N)cc2OC)cc1', 0),
  ('O=C1Nc2ccc(S(=O)(=O)O)cc2/C1=C1/Nc2ccccc2/C1=N\O', 3.3),
  ('CCCCc1c(-c2ccc(O)cc2)[nH]c2nccnc12', 1.7),
  ('CC(C)n1cnc2c(NCc3ccccc3)nc(NCCCO)nc21', 0.1),
  ('N=C(N)NCCNS(=O)(=O)c1cccc2cnccc12', -0.4),
  ('O=C1NC(=O)C(c2c[nH]c3ccccc23)=C1c1c[nH]c2ccccc12', 5.9),
  ('O=C1C(Cl)=C(N2C(=O)CCC2=O)C(=O)c2ccccc21', 0.9),
  ('COc1ccc2c(c[n+](C)c3c4cc5c(cc4ccc23)OCO5)c1OC [CHELERYTHRINE CHLORIDE]', -4.4),
  ('Cc1ccc(NC2=CC(=O)c3sc(C)nc3C2=O)cc1', -1.3),
  ('Cc1ccc(NC(=O)c2cccc(N(C)C)c2)cc1NC(=O)c1ccc(O)cc1', -0.3),
  ('Oc1cc(O)cc(/C=C/c2ccc(O)c(O)c2)c1', 3.2),
  ('CC[C@H](CO)Nc1nc(NCc2ccccc2)c2ncn(C(C)C)c2n1', -1),
  ('CC(C)[C@H](CO)Nc1nc(Nc2cc(N)cc(Cl)c2)c2ncn(C(C)C)c2n1', 1.2),
  ('CC(C)n1cnc2/c(=N/c3cccc(Cl)c3)nc(NCCO)[nH]c21', -0.3),
  ('O=Nc1c(-c2c(O)[nH]c3ccccc23)[nH]c2ccccc12', 2),
  ('Cc1nc(N)sc1-c1ccnc(Nc2cccc([N+](=O)[O-])c2)n1', 1.1);
